Cited source for all entries: PubChem BioAssay AID1159580

TEST_PROTOCOL: chemical genetic growth profiling, strain panel (AID 1159580);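 further: tested at 20 µM; growth read once vehicle control cultures reached saturation at 30 °C; 1 = growth at the plate median or of vehicle wells; lower values mean less growth of the strain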
TEST_CONDITIONS: S. cerevisiae deletion strains, growth OD, locus YML016C, strain PPZ1
In all, about 5,500 compounds went through this assay and about 2,000 (36%) were called active. Roughly 18% stayed inconclusive and do not appear here. No stated cut-off is given here; in the data, active means normalized growth mostly below about 0.91 (no sharp cut-off); inconclusive means no clear call, values can overlap the other calls; inactive means mostly above about 0.92. The list shows a part of the results.
Thanks in advance; please answer with one of these: active, inactive

• CC1=CCC2C3(C)C1=CC(=O)OC3CC1C(C)(C)CC(O)C(O)C12C (stereo not drawn) = inactive
• COC(=O)/C(C)=C\CC12OC(C)(C)C3CC(C=C4C(=O)c5c(O)c6c(c(CCC(C)(C)Cl)c5OC431)OC1(C)CCC(=C(C)C)C6C1)C2=O (stereo not drawn) = inactive

How did this test come out for CC(C)=CCCC1(C)C=Cc2c(O)c3c(c(CC=C(C)C)c2O1)OC12C(=CCCC1C(C)(C)O[C@@]2(C/C=C(\C)C(=O)O)C(=O)O)C3=O (stereo partly drawn) ?
active

----------
TEST_PROTOCOL: chemical genetic growth profiling, strain panel (AID 1159580);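 further: tested at 20 µM; growth read once vehicle control cultures reached saturation at 30 °C; 1 = growth at the plate median or of vehicle wells; lower values mean less growth of the strain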
TEST_CONDITIONS: S. cerevisiae deletion strains, growth OD, locus YGL227W, strain vid30
Out of some 5,500 compounds screened, about 2,000 (36%) were called active. About 18% were inconclusive and are not listed. No stated cut-off is given here; in the data, active means normalized growth mostly below about 0.91 (no sharp cut-off); inconclusive means no clear call, values can overlap the other calls; inactive means mostly above about 0.92. This is one part of the list.
Your reply should match one of these outcome classes. 1 for active, -1 for inactive

Worked cases, answers included:
* O=c1oc2cc(O)ccc2s1 | -1
* COc1c(-c2coc3cc4c(cc3c2=O)CC(OC(C)=O)C(C)(C)O4)ccc2c1C=CC(C)(C)O2 (stereo not drawn) | -1
* CC(C)(Oc1ccc(CCNC(=O)c2ccc(Cl)cc2)cc1)C(=O)O | -1
* CC(C)CCCC1(C)C=Cc2c(O)c3c(c(CCC(C)C)c2O1)OC12C(CC4CC1C(C)(C)OC2(CCC(C)C(=O)O)C4O)C3=O (stereo not drawn) | -1
* O=c1ccc2ccc(O)cc2o1 | -1

Field: outcome | Entry: `O=c1[nH]cc(F)c(=O)[nH]1`
1

Called result for `CNCc1ccccc1`
-1

What is the recorded call for this compound in the test? `CCCOc1ccccc1-c1nc2n[nH]nc2c(=O)[nH]1`
-1

# lookup: test call for COc1c(-c2coc3cc4c(cc3c2=O)CC(O)C(C)(C)O4)ccc2c1C=CC(C)(C)O2 (stereo not drawn)
-1

Outcome? `N=C(N)SCCN`
-1

Record lookup: outcome of this test for CC(C)=CCCC1(C)C=Cc2c(O)c3c(c(CC=C(C)C)c2O1)OC12C(=CC4CC1C(C)(C)OC2(C/C=C(/C)C(=O)O)C4=O)C3=O (stereo not drawn) ?
-1

Hello, I am checking results. What call was entered for CC(C)=CCCC1(C)C=Cc2c(O)c3c(c(CC=C(C)C)c2O1)OC12C(=CCCC1C(C)(C)O[C@@]2(C/C=C(\C)C(=O)O)C(=O)O)C3=O (stereo partly drawn) ?
-1

What did the test return for `COc1ccc2c(c1)c(CC(=O)O)c(C)n2C(=O)c1ccc(Cl)cc1` ?
-1

----------
normalized growth listing for selected molecules.
TEST_PROTOCOL: chemical genetic growth profiling, strain panel (AID 1159580);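 further: tested at 20 µM; growth read once vehicle control cultures reached saturation at 30 °C; 1 = growth at the plate median or of vehicle wells; lower values mean less growth of the strain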
TEST_CONDITIONS: S. cerevisiae deletion strains, growth OD, locus YGL248W, strain PDE1, hits give low values
Screen size: about 5,500 compounds; about 2,000 (36%) were called active. Roughly 18% stayed inconclusive and do not appear here. This is one part of the list.
The answer should be written as a number, with no unit following it.

Reference set, count: 2
- C[C@@H]1OC(O[C@H]2C(O[C@H]3CC[C@@]4(C)C(CC[C@]5(C)C4CC=C4C6CC(C)(C)CC[C@]6(C(=O)O)CC[C@]45C)[C@]3(C)CO)OC[C@H](O)[C@@H]2O)[C@H](O)[C@H](O)[C@H]1O (some centres undefined): 0.422
- COc1cc(N)c(Cl)cc1C(=O)NC1CCN(Cc2ccccc2)CC1: 1

Request the reported normalized growth associated with `Clc1ccccc1C(c1ccccc1)(c1ccccc1)n1ccnc1`
0.0484

Fill in the blank: the reported normalized growth of `NC(N)=N/N=C/c1c(Cl)cccc1Cl` is ____.
1.01
